Assay Info: logP by HPLC on reversed-phase column (C 18), EEC Directive 79/831 Annex V.A8
Type: physicochemical
Assay Endpoint: logP

[[record]]
compound = "CC(Cc1ccccc1F)N(C(=O)c1c(C(F)F)nn(C)c1F)C1CC1 (stereo not drawn)"
assay_endpoint = "logP"
data_value = 3.37

[[record]]
compound = "CC(Cc1c(F)cccc1F)N(C(=S)c1c(C(F)F)nn(C)c1F)C1CC1 (stereo not drawn)"
assay_endpoint = "logP"
data_value = 3.94

[[record]]
compound = "CC(c1ccccc1Cl)C(C)N(C(=O)c1c(C(F)F)nn(C)c1Cl)C1CC1 (stereo not drawn)"
assay_endpoint = "logP"
data_value = 4.08

[[record]]
compound = "CC(Cc1ccc(Cl)cc1Cl)NC(=O)c1c(C(F)F)nn(C)c1F (stereo not drawn)"
assay_endpoint = "logP"
data_value = 3.46

[[record]]
compound = "Cn1nc(C(F)F)c(C(=O)N(C[Si](C)(C)c2ccsc2)C2CC2)c1F"
assay_endpoint = "logP"
data_value = 3.55

[[record]]
compound = "CC(CNC(=O)c1c(C(F)F)nn(C)c1Cl)c1ccc(C(F)(F)F)cc1 (stereo not drawn)"
assay_endpoint = "logP"
data_value = 3.39

[[record]]
compound = "Cn1nc(C(F)F)c(C(=O)NCC(C)(C)c2ccc(Cl)cc2Cl)c1F"
assay_endpoint = "logP"
data_value = 3.81

[[record]]
compound = "Cn1nc(C(F)F)c(C(=O)NCCc2c(Cl)cccc2Cl)c1Cl"
assay_endpoint = "logP"
data_value = 3.21

[[record]]
compound = "CC(Cc1ccccc1Cl)NC(=S)c1c(C(F)F)nn(C)c1F (stereo not drawn)"
assay_endpoint = "logP"
data_value = 3.61

[[record]]
compound = "Cn1nc(C(F)F)c(C(=O)NC[Si](C)(C)c2ccccc2Cl)c1F"
assay_endpoint = "logP"
data_value = 3.48

[[record]]
compound = "CC(Cc1ccco1)NC(=O)c1c(C(F)F)nn(C)c1Cl (stereo not drawn)"
assay_endpoint = "logP"
data_value = 2.37

[[record]]
compound = "CN(CCc1ccccc1Cl)C(=O)c1c(C(F)F)nn(C)c1F"
assay_endpoint = "logP"
data_value = 2.76

[[record]]
compound = "Cn1nc(C(F)F)c(C(=O)NC[Si](C)(C)c2ccc(Cl)cc2Cl)c1Cl"
assay_endpoint = "logP"
data_value = 4.25

[[record]]
compound = "CC(Cc1ccc(Oc2ccccc2)cc1)NC(=O)c1c(C(F)F)nn(C)c1Cl (stereo not drawn)"
assay_endpoint = "logP"
data_value = 3.83

[[record]]
compound = "Cn1nc(C(F)F)c(C(=O)N(CCC#N)CCc2ccccc2)c1Cl"
assay_endpoint = "logP"
data_value = 2.53

[[record]]
compound = "CN(CCc1ccc(C(C)(C)C)cc1)C(=O)c1c(C(F)F)nn(C)c1F"
assay_endpoint = "logP"
data_value = 3.78

[[record]]
compound = "CC(Cc1c(F)cccc1Cl)N(C(=O)c1c(C(F)F)nn(C)c1Cl)C1CC1 (stereo not drawn)"
assay_endpoint = "logP"
data_value = 3.94

[[record]]
compound = "COC(c1ccc(Cl)cc1Cl)C1(NC(=O)c2c(C(F)F)nn(C)c2F)CC1 (stereo not drawn)"
assay_endpoint = "logP"
data_value = 3.46

